System: OCI-AML2
ASSAY NAME: cell viability relative to vehicle control; higher = less cytotoxic;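 further: after 48 h exposure read by CellTiter-Glo luminescence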
ASSAY CONTEXT: 10 µM; SRSF2 genotype: wt/wt
Counter-ions that a name gives are not always drawn.
Response field label: string, one of fulfilled (cell viability strictly below 80%) or not fulfilled.

MOLECULE | STUDY TARGET | QUALITATIVE LABEL
Cc1[nH]c(/C=C2\C(=O)Nc3ccc(S(=O)(=O)Cc4c(Cl)cccc4Cl)cc32)c(C)c1C(=O)N1CCC[C@@H]1CN1CCCC1 | OCI-AML2 | fulfilled
N/C(=N\N=C\c1ccc(Cl)cc1)N/N=C/c1ccc(Cl)cc1 [Robenidine Hydrochoride] | OCI-AML2 | fulfilled
CN(c1ccccc1CNc1nc(Nc2ccc3c(c2)CC(=O)N3)ncc1C(F)(F)F)S(C)(=O)=O | OCI-AML2 | fulfilled
O=c1c(-c2ccc(O)cc2)coc2cc(O[C@@H]3O[C@H](CO)[C@@H](O)[C@H](O)[C@H]3O)ccc12 | OCI-AML2 | not fulfilled
C[C@]1(O)C[C@@H](O)[C@]2(O)C=CO[C@@H](O[C@H]3O[C@H](CO)[C@@H](O)[C@H](O)[C@H]3O)[C@@H]21 [Harpagide] | OCI-AML2 | not fulfilled
CC(/C=C1\SC(=S)N(CC(=O)O)C1=O)=C\c1ccccc1 | OCI-AML2 | not fulfilled
O=C(O)Cc1cccc(OCCCN(Cc2cccc(C(F)(F)F)c2Cl)CC(c2ccccc2)c2ccccc2)c1 | OCI-AML2 | not fulfilled
Cc1c(-c2ccc(O)cc2)n(Cc2ccc(OCCN3CCCCCC3)cc2)c2ccc(O)cc12 [Bazedoxifene HCl] | OCI-AML2 | fulfilled
O=C(Nc1cc(Cl)cc2c1[nH]c1cnccc12)c1cccnc1 | OCI-AML2 | not fulfilled
O=S(=O)(NCCNCC=Cc1ccc(Br)cc1)c1cccc2cnccc12 | OCI-AML2 | fulfilled
CC(C)(C)c1nc(-c2cccc(NS(=O)(=O)c3c(F)cccc3F)c2F)c(-c2ccnc(N)n2)s1 | OCI-AML2 | not fulfilled
CCCCc1ccc(O)cc1O | OCI-AML2 | not fulfilled
CNC[C@H](O)c1cccc(O)c1 [Phenylephrine hydrochloride] | OCI-AML2 | not fulfilled
Cc1cc(C)cc(NC(=O)Cc2ccc(OC(C)(C)C(=O)O)cc2)c1 [Efaproxiral sodium] | OCI-AML2 | not fulfilled
CO[C@@]1(NC(=O)CSC[C@@H](N)C(=O)O)C(=O)N2C(C(=O)O)=C(CSc3nnnn3C)CS[C@@H]21 [Cefminox Sodium] | OCI-AML2 | not fulfilled
NCCCCCC(=O)O | OCI-AML2 | not fulfilled
COc1ccc(C(=O)O)c(O)c1 | OCI-AML2 | not fulfilled

----------
Test system: OCI-AML2
ASSAY NAME: cell viability relative to vehicle control; higher = less cytotoxic
ASSAY CONTEXT: 10 µM; SRSF2 genotype: wt/wt

COMPOUND | cell viability (%)
CCOCCn1c(C2CCN(CCc3ccc(C(C)(C)C(=O)O)cc3)CC2)nc2ccccc21 | 96.2
O=c1ccc2ccc(O)c(O)c2o1 | 86.2
COc1ccc2[nH]c([S+]([O-])Cc3ncc(C)c(OC)c3C)nc2c1 (stereo not drawn) | 100
COc1ccc(CCC(=O)c2c(O)cc(O[C@@H]3O[C@H](CO)[C@@H](O)[C@H](O)[C@H]3O[C@@H]3O[C@@H](C)[C@H](O)[C@@H](O)[C@H]3O)cc2O)cc1O [Neohesperidin dihydrochalcone (Nhdc)] | 84.9
Nc1ccn([C@H]2CC[C@@H](CO)O2)c(=O)n1 | 83
Nc1ncnc2n[nH]c(Nc3ccc(F)cc3)c12 | 63.8
CCC[C@H](Nc1nc(-c2ccc(NC(=O)NCC)c(OC)c2)ncc1C)c1cccnc1 | 2.78
NS(=O)(=O)c1cc2c(cc1Cl)NC(C(Cl)Cl)NS2(=O)=O (stereo not drawn) [Trichlormethiazide (Achletin)] | 110

----------
Tested on: MOLM14
ASSAY NAME: cell viability relative to vehicle control; higher = less cytotoxic
ASSAY CONTEXT: 10 µM; SRSF2 genotype: SRSF2 P95H/wt
Below, each entry is listed alongside its reported cell viability.

COMPOUND | cell viability (%)
O=C(NCC1(c2nc(-c3ccccc3)cs2)CCOCC1)c1cccc(-c2noc(C(F)(F)F)n2)c1 | 87.9
Cc1ccc(S(=O)(=O)c2ccc([N+](=O)[O-])o2)cc1 | 0.19
COc1cc(O)c2c(=O)c(O[C@@H]3O[C@H](CO)[C@@H](O)[C@H](O)[C@H]3O)c(-c3ccc(O[C@@H]4O[C@H](CO)[C@@H](O)[C@H](O)[C@H]4O)cc3)oc2c1 [Complanatuside] | 108
C[C@H]1COC2(CCN(c3nc(=O)c4cc(C(F)(F)F)cc([N+](=O)[O-])c4s3)CC2)O1 (racemic) [BTZ043 racemate] | 87

----------
System: MARIMO
ASSAY NAME: cell viability relative to vehicle control; higher = less cytotoxic
ASSAY CONTEXT: 10 µM; SRSF2 genotype: SRSF2 wt/wt
Reported cell viability values for a set of molecules
OBSERVATION TYPE: cell viability (%)

MOLECULE | STUDY TARGET | OBSERVED
C=C(C)[C@@H]1CC[C@]2(C=O)CC[C@]3(C)[C@H](CC[C@@H]4[C@@]5(C)CC[C@H](O)C(C)(C)[C@@H]5CC[C@]43C)[C@@H]12 | MARIMO | 94.2
OCCN1C[C@H](O)[C@@H](O)[C@H](O)[C@H]1CO | MARIMO | 102
COc1ccc(S(=O)(=O)N(C(C)=O)c2ccccc2/C=C/c2cc[n+]([O-])cc2)cc1 | MARIMO | 8.02
O=c1c(O)c(-c2ccc(O)cc2)oc2cc(O)cc(O)c12 | MARIMO | 117
C=C1/C(=C\C=C2/CCC[C@]3(C)[C@@H]([C@H](C)/C=C/[C@H](C)C(C)C)CC[C@@H]23)C[C@@H](O)C[C@@H]1O | MARIMO | 46.8
O=C(Nc1ccc2c(O)cc(S(=O)(=O)O)cc2c1)Nc1ccc2c(O)cc(S(=O)(=O)O)cc2c1 | MARIMO | 101
O=C1CC(c2ccc(O)cc2)Oc2cc(O)ccc21 (stereo not drawn) | MARIMO | 93.6
O=C(NOCC(O)CO)c1cc(Br)c(F)c(F)c1Nc1ccc(I)cc1F (stereo not drawn) | MARIMO | 37.3

----------
Readings of cell viability for the listed compounds
System: K562
ASSAY NAME: cell viability relative to vehicle control; higher = less cytotoxic
ASSAY CONTEXT: 10 µM; SRSF2 genotype: SRSF2 wt/wt
Where a name gives a salt, the structure may show the parent alone.

COMPOUND | UNIT TEXT | cell viability
CCOC(=O)[C@H](CCc1ccccc1)N[C@@H](C)C(=O)N1Cc2cc(OC)c(OC)cc2C[C@H]1C(=O)O [Moexipril HCl] | % | 104
CC(C)N1CCN(Cc2cnc(-c3cc(-c4cccc5[nH]ccc45)cc4[nH]ncc34)o2)CC1 | % | 36.8
CC(C)C[C@H](NC(=O)[C@@H](NC(=O)c1cccc(-c2ccccc2)n1)[C@@H](C)O)B(O)O | % | 3.78
O=C(NC1CCOCC1)c1ccc(-c2cc(-c3c[nH]nc3-c3ccccn3)ccn2)cc1 | % | 93
C=CC[C@@H]1/C=C(\C)C[C@H](C)C[C@H](OC)[C@H]2O[C@@](O)(C(=O)C(=O)N3CCCC[C@H]3C(=O)O[C@H](/C(C)=C/[C@@H]3CC[C@@H](O)[C@H](OC)C3)[C@H](C)[C@@H](O)CC1=O)[C@H](C)C[C@@H]2OC [Tacrolimus (FK506)] | % | 84.9
Cc1cccc(-c2[nH]ncc2-c2ccc3ncccc3n2)n1 | % | 107
CC(=O)OCC(=O)[C@H]1CC[C@H]2[C@@H]3CCC4=CC(=O)CC[C@]4(C)[C@H]3CC[C@]12C [Deoxycorticosterone acetate] | % | 98.4
COc1ccc(OC)c(C2C(C#N)=C(N)Oc3n[nH]c(-c4ccc5ccccc5c4)c32)c1 (stereo not given) | % | 105
C=C1C(=O)O[C@@H]2/C=C(\C)CC/C=C(\C)CC[C@@H]12 [Costunolide] | % | 41.4
COC(=O)Nc1nc2cc(C(=O)c3ccc(F)cc3)ccc2[nH]1 [Flubendazole (Flutelmium)] | % | 27.6
Cc1ncc(CO)c(CO)c1O [Pyridoxine] | % | 97.3
Cn1nnc(-c2ccc3c(c2)[nH]c2nc(Cc4ccccc4)nc(NC4CCC(N)CC4)c23)n1 (stereo not given) | % | 0.16
O=C(NC(NC(=S)Nc1ccc(F)c([N+](=O)[O-])c1)C(Cl)(Cl)Cl)C(c1ccccc1)c1ccccc1 (stereo not given) | % | 17.6
COc1cccc(OC)c1C(=O)OCc1cc(O)ccc1O[C@@H]1O[C@H](CO)[C@@H](O)[C@H](O)[C@H]1O [Curculigoside] | % | 106
C[C@@]1(F)[C@H](O)[C@@H](CO)O[C@H]1n1ccc(=O)[nH]c1=O [2'-deoxy-2'-fluoro-2'-C-methyluridine] | % | 89.8

All values here come from the supplement of paper PMC10981050.
